Here's a roundup of log10 Ki values tested on Carbonic anhydrase 9 (Homo sapiens), taken from various published works.
ENDPOINT LABEL: log10 Ki (log10 of the value in nM)

CN(C)C(=O)Nc1ccc(S(N)(=O)=O)cc1 3.15
C[C@@H]1O[C@@H](NS(N)(=O)=O)[C@@H](O)[C@H](O)[C@H]1O 2.95
CC(=O)OC[C@H]1O[C@@H](n2cc(-c3cccc(S(N)(=O)=O)c3)nn2)[C@H](OC(C)=O)[C@@H](OC(C)=O)[C@H]1OC(C)=O 2.97
Cc1cc(C)[n+](CCc2ccccc2-c2ccccc2)c(C)c1 2.85
NS(=O)(=O)c1ccc(-n2nnc(C(=O)O)c2-c2ccccn2)cc1 3.15
NS(=O)(=O)c1ccc(CN2C(=O)c3ccc([N+](=O)[O-])cc3C2=O)cc1 3.95
CCOC(=O)c1nn(-c2ccc(S(N)(=O)=O)cc2)c2nc3nc(-c4cccs4)cc(-c4ccc(F)cc4)c3c(=O)n12 3.21
N#Cc1cccnc1N1CCN(C(=O)Nc2ccc(S(N)(=O)=O)cc2)CC1 2.31
O=C1Nc2c(F)cccc2S(=O)(=O)N1 1.77
CC1(C)OB(c2ccc(NC(=S)Nc3ccc(S(N)(=O)=O)cc3I)cc2)OC1(C)C 0.97
CC1=CC(=O)N(Cc2ccc(F)cc2)S(=O)(=O)O1 2.42

* * *

pKi: −log10 of the molar value.
Here's a roundup of pKi values tested on Carbonic anhydrase 9 (Homo sapiens), taken from various published works.
ENDPOINT LABEL: pKi

NS(=O)(=O)c1no[n+]([O-])c1-c1ccccc1 8.15
NS(=O)(=O)c1cccc(NC(=O)Nc2ccc(I)cc2)c1 6.94
CCCOc1ccc(S(N)(=O)=O)cc1 7.88
COc1cccc(C(=O)CN2C(=O)c3ccccc3S2(=O)=O)c1 5.80
NS(=O)(=O)NCc1ccc(S(N)(=O)=O)cc1 7.19
CC1CCN(CCC(=O)Nc2ccc(S(N)(=O)=O)cc2)CC1 6.71
COC(=O)C1=Cc2cc(OC)ccc2OC(=O)C1 7.40
CCCCCCCCCCCCCCON(CC(=O)NO)S(=O)(=O)c1ccc(OC)cc1 5.13
NS(=O)(=O)c1ccc(-n2c(=O)c3ccccc3c3ccccc3c2=O)cc1 7.03
COc1cc(/C=C(\C#N)C(=O)Nc2ccc(S(N)(=O)=O)cc2)cc(OC)c1OC 7.69

* * *

Here's a roundup of Ki values tested on Carbonic anhydrase 9 (Homo sapiens, UniProt Q16790), taken from various published works.
Class assignment keyed on Ki, ranges low bracket (below 20 nM), middle bracket (20 nM to below 300 nM), high bracket (300 nM or more)

MOLECULE	LABEL
NS(=O)(=O)c1nonc1OCc1ccccc1	low bracket
NS(=O)(=O)c1ccc(NC(=O)CN2CCCC(C(=O)NN=C3C(=O)Nc4cc(F)ccc43)C2)cc1 (stereo unspecified)	middle bracket
O=C(Nc1cc2cc(Br)ccc2o1)Nc1ccccc1C(=O)O	high bracket
NS(=O)(=O)c1ccc(-n2nc(-c3ccc4ccccc4c3)cc2CO)cc1	middle bracket
NCCCCCCOc1ccc(S(N)(=O)=O)cc1	low bracket
Cc1c(-c2nnc(SCC(=O)c3ccccc3)[nH]2)nnn1-c1ccc(S(N)(=O)=O)cc1	high bracket
NS(=O)(=O)c1cc(C(=O)N2CCCC2)c(Cl)cc1SSc1cc(Cl)c(C(=O)N2CCCC2)cc1S(N)(=O)=O	high bracket
CCOP(=O)(OCC)C(Nc1ccc(S(N)(=O)=O)cc1)c1ccc(Br)cc1 (stereo unspecified)	middle bracket
Cc1c(NC(=O)Nc2ccccc2S(N)(=O)=O)sc2nc3ccccc3n12	high bracket
CCOc1ccc(S(=O)(=O)N2CCCNCC2)cc1-c1nnc2c(n1)c(C)nn2C	middle bracket
COc1cccc(-c2cn(-c3ccc4c(c3)C=CS(=O)(=O)O4)nn2)c1	middle bracket
CC(=O)N1N=C(c2ccccc2)CC1c1ccc(OS(N)(=O)=O)cc1 (stereo unspecified)	middle bracket
S=C(S)NCCN1CCOCC1	low bracket
NS(=O)(=O)c1ccc(Nc2nc(Cl)nc(Cl)n2)cc1	low bracket
NS(=O)(=O)OC[C@H]1O[C@H](O[C@H]2[C@H](O)[C@@H](O)[C@H](O)O[C@@H]2CO)[C@H](O)[C@@H](O)[C@@H]1O	high bracket
CC(C)(C)OC(=O)NCc1cn(-c2ccc(S(N)(=O)=O)cc2)nn1	low bracket
NS(=O)(=O)c1cc(-c2nc(-c3ccccn3)no2)cs1	low bracket
CN1C(=O)NS(=O)(=O)c2ccccc21	middle bracket
Cc1cn([C@H]2C[C@@H](n3cc(COC(=O)c4ccc(S(N)(=O)=O)cc4)nn3)[C@@H](CO)O2)c(=O)[nH]c1=O	low bracket
CC(=O)Nc1nnc(S)s1	high bracket
Cc1cc(S(N)(=O)=O)c(S(=O)(=O)C(C)C(=O)O)cc1Cl (stereo unspecified)	high bracket
COc1ccc(CCNS(N)(=O)=O)cc1	high bracket
COc1ccc2c(c1)CCN=C2c1ccc(S(N)(=O)=O)cc1	low bracket
NS(=O)(=O)c1ccc2c(c1)C=CS2(=O)=O	low bracket
NS(=O)(=O)c1ccc(C/N=C/c2cccc(OCc3cn(CCCOc4ccc5ccc(=O)oc5c4)nn3)c2)cc1	high bracket
CC(=O)c1nn(-c2ccc(S(N)(=O)=O)cc2)c2nc3nc(-c4ccc(Cl)cc4)cc(-c4ccc([N+](=O)[O-])cc4)c3c(=O)n12	high bracket
O=c1oc2ccccc2c2nn(Cc3ccccc3)c(Cc3ccccc3)c12	middle bracket
CC(C)(C)OC(=O)N(CCCN(CCNC(=O)C(F)(F)F)C(=O)OC(C)(C)C)CCNC(=O)C(F)(F)F	high bracket
NS(=O)(=O)c1ccc(-c2noc(-c3ccccn3)n2)cc1	low bracket
O=c1oc2ccccc2c2nn(-c3ccccc3)cc12	middle bracket
NS(=O)(=O)c1ccc(C(=O)N2CCc3cc(O)c(O)cc3C2c2ccccc2)cc1 (racemic)	middle bracket
